Hey, just so you know, these numbers are from patent US20210079109A1.

# target under test: T1, recombinant human CD63 extracellular loop 2 expressed with a C-terminal human Fc tag (human)
# T1 construct: also called hCD63 EC loop 2-hFc; human CD63 EC loop 2-Fc
# T1 sequence (chain, as listed by the source limits assumed): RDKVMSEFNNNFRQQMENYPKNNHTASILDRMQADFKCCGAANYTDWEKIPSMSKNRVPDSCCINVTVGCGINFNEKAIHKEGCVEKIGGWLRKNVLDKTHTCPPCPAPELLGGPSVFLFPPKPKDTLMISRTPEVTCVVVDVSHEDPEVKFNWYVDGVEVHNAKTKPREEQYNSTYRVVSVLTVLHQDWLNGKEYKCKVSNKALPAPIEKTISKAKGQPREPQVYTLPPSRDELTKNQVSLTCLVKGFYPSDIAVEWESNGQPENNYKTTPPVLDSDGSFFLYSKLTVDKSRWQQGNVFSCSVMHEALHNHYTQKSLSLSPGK
# test description: SPR Biacore, mAb captured, 25C
We begin with a simple list: items and their reported kon.
Write down the numeric answer in M⁻¹ s⁻¹ and omit the unit.

| binder | measured result |
| --- | --- |
| H2M13022N (antibody, V domains shown, also called H2bM13022N) VH: QVQLVESGGGLVQPGGSLRLSCAASGFIFGDYYINWIRQAPGKGLQWVSYTSSSGSTTYYEDSVKGRFTMSRDNAKNLVYLQMNSLRAEDTAAYYCVRDLRYNDGLDVWGQGTTVIVSS VL: DILLTQSPSSLSAFVGDRVTITCRASQNIRTYLNWYQQKPGRAPKLLVYAASTLQSGVPSRFSGSGSGTDFTLTISSLQPEDFASYFCQQSYDNPPITFGQGTRLAIK | 460000 |

# ---- query binder ----
Fill in the blank: the reported kon of H2M12387N (antibody, V domains shown, also called H2aM12387N) VH: QVQLEESGGGVVKAGGSLRLSCAASGFTFSDYYMNWIRQAPGKGLEWVSYINNGGYTIYYADSVKGRFTMSRDNAKNSVYLQMNGLRAEDTAFYYCVRDPRSYYGFDYWGQGTLVIVSS VL: DIQMTQSPSSLSASVGDRVTITCRASQSISRFLHWYQQKPGKAPKLLIYGASSLQSGVPSRFSGSGSGTDFTLTISSLQPEDFATYYCQQSYSTPPITFGQGTRLEIK is ____.
854000
